test system: ABL1-phosphorylated; conditions: concentration: 1 μM, replicates: in singlicate; n = 1;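 further: KINOMEscan kinase panel screen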
valueType: %Inh (%)
Just the number please, in %, no unit attached.

Solved entries (count: 2):
compound	experimentalResult
COc1cc(Nc2ccnc3ccc(C(F)(F)F)cc23)cc(OC)c1OC [GW577382]	19
COc1ccc(-c2coc3ccc(-c4nnc(SCc5cccc(C#N)c5)o4)cc23)cc1	0

Please examine the following record next.
Test item CN1C(=O)C(Nc2cc(Cl)c(O)c(Cl)c2)=C(c2ccc(Cl)cc2)C1=O [SB-404321] ; ABL1-phosphorylated; reported %Inh was 0

* * *

system: PRKCE; settings: concentration: 1 μM, replicates: in singlicate; n = 1
valueType: %Inh (%)
Just the number please, in %, no unit attached.

Solved entries (count: 3):
COc1cc2nccc(Nc3cccc(Oc4ccccc4)c3)c2cc1OC.Cl 0
Nc1ncnc2c1ncn2-c1cccc2ccccc12 5
O=c1cc(N2CCOCC2)nc2n(Cc3ccc(F)c(Cl)c3)ccn12 0

Sample "Cc1cccc(-c2nc(Nc3ccc4c(cnn4C)c3)c3ccccc3n2)n1" ; %Inh observed: 15

Sample "CCn1c(-c2nonc2N)nc2ccccc21" ; %Inh observed: 44

Sample "COc1cc2ncn(-c3cc(OCCCc4ccccc4)c(C(N)=O)s3)c2cc1OC" ; %Inh observed: 0

Sample "COc1cc2ncn(-c3cc(OCc4ccncc4)c(C(N)=O)s3)c2cc1OC" ; %Inh observed: 1

Sample "COc1cccc(C2=C(N(C)c3ccccc3)C(=O)NC2=O)c1" ; %Inh observed: 25

Sample "O=C(NCc1cccs1)c1cc(C(=O)c2c(Cl)cccc2Cl)c[nH]1" ; %Inh observed: 9

Sample "CCC(=O)c1c(-c2ccccc2)c2cc(Cl)ccc2c(=O)n1Cc1cc(S(C)(=O)=O)n(CC(F)F)n1" ; %Inh observed: 0

Sample "Nc1nccc2scc(-c3ccc4c(c3)CCN4C(=O)Cc3ccccc3)c12" ; %Inh observed: 0

Sample "COc1ccc(-c2coc3ccc(-c4nnc(SCc5cccc(C#N)c5)o4)cc23)cc1" ; %Inh observed: 0

Sample "Cc1c(Cn2c(C)nn3c(=O)cc(N4CCO[C@H](C)C4)nc23)cccc1C(F)(F)F" ; %Inh observed: 0

Sample "COc1cccc(C2=C(Nc3cccc(C(=O)O)c3)C(=O)NC2=O)c1" ; %Inh observed: 15

Sample "Cc1ccccc1COc1cc(-n2cnc3cc(Cl)ccc32)sc1C(N)=O" ; %Inh observed: 2

Sample "Cc1nc(N(C)[C@H]2CN(C(=O)CC#N)CC[C@H]2C)c2cc[nH]c2n1" ; %Inh observed: 0
